experiment: activity coefficient (dimensionless); of the first substance listed, at infinite dilution; xn = mol fraction of the nth substance listed; conditions: 418.15 K; 101 kPa; Liquid; Chromatography; x1 = 0
Endpoint Name: activity coefficient
In your answer, state the number alone without any accompanying words.

These solved cases illustrate the format of a correct answer.
Compound	activity coefficient
CC(C)CC(C)C [2,4-dimethylpentane] + CCCCCCCCCCCCCCCCCCC(CCCCCCCCCCCCCCCCCC)CCCCC(CCCCCCCCCCCCCCCCCC)CCCCCCCCCCCCCCCCCC	0.396
C1CCCCC1 [cyclohexane] + CCCCCCCCCCCCCCCCCCC(CCCCCCCCCCCCCCCCCC)CCCCC(CCCCCCCCCCCCCCCCCC)CCCCCCCCCCCCCCCCCC	0.245
CCC#CCC [3-hexyne] + CCCCCCCCCCCCCCCCCCC(CCCCCCCCCCCCCCCCCC)CCCCC(CCCCCCCCCCCCCCCCCC)CCCCCCCCCCCCCCCCCC	0.417
C[C@@H]1CCCC[C@H]1C [trans-1,2-dimethylcyclohexane] + CCCCCCCCCCCCCCCCCCC(CCCCCCCCCCCCCCCCCC)CCCCC(CCCCCCCCCCCCCCCCCC)CCCCCCCCCCCCCCCCCC	0.288
C=CCCCCCCCCCCCC [1-tetradecene] + CCCCCCCCCCCCCCCCCCC(CCCCCCCCCCCCCCCCCC)CCCCC(CCCCCCCCCCCCCCCCCC)CCCCCCCCCCCCCCCCCC	0.476

Now for the compound whose activity coefficient we want.
Q: Specify reported activity coefficient for the compound shown: C=CCCCCCCCCCCC [1-tridecene] + CCCCCCCCCCCCCCCCCCC(CCCCCCCCCCCCCCCCCC)CCCCC(CCCCCCCCCCCCCCCCCC)CCCCCCCCCCCCCCCCCC
Ans: 0.467

These data points were gathered from the NIST ThermoML archive (doi:10.1016/j.fluid.2006.07.015).
